Tested on: biotinyl-Phe-oxazolone
Assay: self-aminoacylation, catalytic enhancement (BFO) (fold over background); higher = more active; k-Seq, kA / k0A0; sequences stand for … in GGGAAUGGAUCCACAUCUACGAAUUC…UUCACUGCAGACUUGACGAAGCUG
Fewer inactive variants are shown than the library holds.
Observable: self-aminoacylation
Note: the reply should be a number with no unit written.

>>> endpoint_result("CCAGGCUUCAAGCAAUCGGUC [Fam1B.1 aminoacylation ribozyme variant]")
83.5
>>> endpoint_result("AUUACGCGGGUCAUCGAGUGA [Fam2.1 aminoacylation ribozyme variant]")
22.7
>>> endpoint_result("CCACACUUCAAAGAAUCGGUC [Fam1B.1 aminoacylation ribozyme variant]")
12.1

Sample AUCAUCCUGGUCAUCGAGUGA [Fam2.1 aminoacylation ribozyme variant] — what was its self-aminoacylation?
36.4
